target: biotinylated Aβ1-42 (Homo sapiens, UniProt P05067); construct: To assure monomerisation of biotinylated Aβ1-42 (Anaspec #23523-0.5) the peptide was thoroughly monomerised; test: Inhibition of Abeta oligomerisation (biotinylated Aβ1-42, neutravidin plate, streptavidin-HRP); conditions: inhibition of Aβ1-42 aggregation, approximately 12 nM Aβ1-42, PBS pH 7.4, 2% DMSO, 30 min RT
Sequence (P05067 672-713 limits assumed): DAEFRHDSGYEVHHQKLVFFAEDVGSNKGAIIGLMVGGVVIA
pIC50: −log10 of the molar value.
endpoint: pIC50

Below, 2 compounds whose answers are already recorded.
>  <line_notation>
O=C(O)Cc1ccsc1-c1ccc(-c2sc(-c3cc(CC(=O)O)c(-c4ccc(-c5sccc5CC(=O)O)s4)s3)cc2CC(=O)O)s1

>  <pIC50>
5.30

$$$$
>  <line_notation>
O=C(O)Cc1cc(-c2ccc(-c3cccc(C(=O)O)c3)s2)sc1-c1ccc(-c2sc(-c3ccc(-c4cccc(C(=O)O)c4)s3)cc2CC(=O)O)s1

>  <pIC50>
6.00

$$$$

(1) C#Cc1cc(CC(=O)O)c(-c2ccc(-c3sc(C#C)cc3CC(=O)O)s2)s1
(2) NCCc1ccsc1-c1ccc(-c2sc(-c3ccc(-c4cc(CCN)c(-c5ccc(-c6sccc6CCN)s5)s4)s3)cc2CCN)s1
Just curious, which one has the larger pIC50 reading, 1 or 2 ? Returns: label corresponding to the selected item.
2

Origin of measurements: patent US9359311B2
